tested.target: T1, hCD137 (FXa digested) (human, UniProt Q07011 24-186)
T1 construct: Factor Xa digestion and Protein A removed the Fc; also called human CD137 extracellular domain
T1 sequence (Q07011 other isoform, or with tags, fused parts or gaps limits assumed): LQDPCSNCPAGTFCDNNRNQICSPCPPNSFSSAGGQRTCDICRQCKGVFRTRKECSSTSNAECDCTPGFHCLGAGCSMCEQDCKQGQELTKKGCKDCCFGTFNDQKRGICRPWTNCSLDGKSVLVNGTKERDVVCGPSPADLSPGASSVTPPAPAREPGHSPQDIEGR
experimental.protocol: SPR, 100 uM AMP
binding amount: recorded values
Give just the numeric value; RU need not be written.

- binder: "dBBAT037-P253 (antibody, human IgG1, lambda, V domains shown) VH: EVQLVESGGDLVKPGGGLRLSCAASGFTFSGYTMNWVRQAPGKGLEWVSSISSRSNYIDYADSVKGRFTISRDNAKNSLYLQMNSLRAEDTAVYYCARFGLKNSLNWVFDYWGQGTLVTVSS VL: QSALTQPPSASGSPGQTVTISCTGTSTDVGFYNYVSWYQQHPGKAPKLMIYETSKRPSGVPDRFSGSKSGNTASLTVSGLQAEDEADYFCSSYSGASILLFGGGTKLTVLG"
  unit.name: "RU"
  reported: 13.8
- binder: "dBBAT042-P253 (antibody, human IgG1, lambda, V domains shown) VH: EVQLVESGGDLVKPGGGLRLSCAASGFTFSSHTMNWVRQAPGKGLEWISSISSRSNYKSYADSVKGRFTISRDNAKNSLYLQMNSLRAEDTAVYYCARYGHKNMHNWVFDYWGQGTLVTVSS VL: QSALTQPPSASGSPGQTVTISCTGTSSDVGFYNYVSWYQQHPGKAPKLMIYEVSKRPSGVPDRFSGSKSGNTASLTVSGLQAEDEADYFCSTYRYDQNVAFGGGTKLTVLG"
  unit.name: "RU"
  reported: 4.7
- binder: "dBBAT091-P253 (antibody, human IgG1, lambda, V domains shown) VH: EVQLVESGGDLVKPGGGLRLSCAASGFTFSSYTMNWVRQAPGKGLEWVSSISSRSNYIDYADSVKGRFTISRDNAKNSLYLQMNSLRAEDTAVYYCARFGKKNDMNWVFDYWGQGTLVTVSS VL: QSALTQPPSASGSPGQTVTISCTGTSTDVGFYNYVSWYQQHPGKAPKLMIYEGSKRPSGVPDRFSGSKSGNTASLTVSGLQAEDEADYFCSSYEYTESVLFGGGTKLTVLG"
  unit.name: "RU"
  reported: 3.3

Shifting focus to the binder that follows.
Given the entry dBBAT119-P253 (antibody, human IgG1, lambda, V domains shown, also called dBBAT119H-P253/dBBAT119L-LamLib) VH: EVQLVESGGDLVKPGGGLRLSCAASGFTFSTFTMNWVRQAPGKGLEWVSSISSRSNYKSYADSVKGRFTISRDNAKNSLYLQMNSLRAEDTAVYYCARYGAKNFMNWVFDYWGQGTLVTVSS VL: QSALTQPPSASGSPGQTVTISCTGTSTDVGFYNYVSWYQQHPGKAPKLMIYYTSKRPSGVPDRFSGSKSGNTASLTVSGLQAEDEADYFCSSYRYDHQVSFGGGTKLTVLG , report its measured binding amount.
26.9
